All figures here come from ChEMBL document CHEMBL1147193.

# Test system: SN12C
# Method description: Growth inhibition of human SN12C cells after 48 hrs by SRB protein assay
# Type: functional
# Assay conditions: read-out: Log TGI (converted)
Could you please mark criterion met for values of TGI below 60 µM and criterion not met for values at or above it?

Please determine if COc1ccc(NC(=O)CC2Sc3ncnn3C2=O)cc1 (configuration not stated) is below 60 µM in terms of TGI. criterion met

Criterion: TGI strictly below 60 µM. Is it met by O=C(CC1Sc2ncnn2C1=O)Nc1ccc(Cl)cc1 (configuration not stated) ? criterion met

I'd appreciate it if you could check whether O=c1/c(=C/c2ccc(F)cc2)sc2ncnn12 has TGI smaller than 60 µM. criterion not met

Is it true that TGI reported for O=C(CC1Sc2ncnn2C1=O)Nc1ccc(Br)cc1 (configuration not stated) is less than 60 µM? criterion not met

In plain terms, does O=C(CC1Sc2ncnn2C1=O)Nc1ccccc1 (configuration not stated) come in under 60 µM for TGI? criterion not met

TGI strictly < 60 µM for this compound? CCOC(=O)c1ccc(NC(=O)CC2Sc3ncnn3C2=O)cc1 (configuration not stated) criterion not met

# strict comparison: is reported TGI < 60 µM? input = O=c1/c(=C/c2ccc(Cl)cc2)sc2ncnn12 criterion met

* * *

# System: M14
# Method description: Growth inhibition of human M14 cells after 48 hrs by SRB protein assay
# Type: functional
# Assay conditions: M14, 48 h, read-out: Log TGI (converted)
Measured property: TGI

For the compound CCOC(=O)c1ccc(NC(=O)CC2Sc3ncnn3C2=O)cc1 (configuration not stated) , what TGI is on record? 34.7 µM

Which measured TGI value corresponds to O=C(CC1Sc2ncnn2C1=O)Nc1ccc(Br)cc1 (configuration not stated) ? 29.5 µM

Fill in: TGI of O=c1/c(=C/c2ccc(F)cc2)sc2ncnn12 is ___ > 100 µM

Sample O=c1/c(=C/c2ccc(Cl)cc2)sc2ncnn12 — what was its TGI? 35.5 µM

// lookup TGI for O=C(CC1Sc2ncnn2C1=O)Nc1ccccc1 (configuration not stated) 45.7 µM

Entry COc1ccc(NC(=O)CC2Sc3ncnn3C2=O)cc1 (configuration not stated) has what TGI? 33.9 µM

Quick one: TGI for O=C(CC1Sc2ncnn2C1=O)Nc1ccc(Cl)cc1 (configuration not stated) ? > 100 µM

* * *

# Test system: OVCAR-8
# Method description: Growth inhibition of human OVCAR8 cells after 48 hrs by SRB protein assay
# Format: functional
# Assay conditions: OVCAR-8, 48 h
Output Condition met for records whose GI50 is lower than 20 µM, Condition not met for records at or above 20 µM.

Item O=C(CC1Sc2ncnn2C1=O)Nc1ccc(Br)cc1 (configuration not stated) : GI50 beneath 20 µM, strictly? Condition met

Is the reported GI50 for COc1ccc(NC(=O)CC2Sc3ncnn3C2=O)cc1 (configuration not stated) strictly below 20 µM? Condition not met

Does this molecule meet the criterion GI50 < 20 µM? CCOC(=O)c1ccc(NC(=O)CC2Sc3ncnn3C2=O)cc1 (configuration not stated) Condition not met

# TODO verify GI50 < 20 µM strictly for this molecule: O=C(CC1Sc2ncnn2C1=O)Nc1ccc(Cl)cc1 (configuration not stated) Condition not met

Consider O=c1/c(=C/c2ccc(F)cc2)sc2ncnn12 . Does its GI50 lie strictly below 20 µM? Condition not met

Record O=c1/c(=C/c2ccc(Cl)cc2)sc2ncnn12 : is its GI50 strictly below 20 µM? Condition met

A record lists O=C(CC1Sc2ncnn2C1=O)Nc1ccccc1 (configuration not stated) . Is its GI50 below 20 µM? Condition not met

* * *

# System: A549
# Method description: Growth inhibition of human A549/ATCC cells after 48 hrs by SRB protein assay
# Format: functional
# Assay conditions: A549, 48 h
Measured property: GI50

Query GI50 on A549 for O=C(CC1Sc2ncnn2C1=O)Nc1ccccc1 (stereo not drawn) > 100 µM

Report GI50 for O=C(CC1Sc2ncnn2C1=O)Nc1ccc(Cl)cc1 (stereo not drawn) tested on A549. > 100 µM

GI50 of CCOC(=O)c1ccc(NC(=O)CC2Sc3ncnn3C2=O)cc1 (stereo not drawn) on A549? > 100 µM

* * *

# System: PC-3
# Method description: Growth inhibition of human PC3 cells after 48 hrs by SRB protein assay
# Assay type: functional
# Assay conditions: PC-3, 48 h, read-out: Log TGI (converted)
Record form. Attribute: TGI. Fill in for each entry.

Any idea what its TGI is? The compound is O=C(CC1Sc2ncnn2C1=O)Nc1ccccc1 (stereo not drawn) > 100 µM

What measured TGI goes with O=c1/c(=C/c2ccc(F)cc2)sc2ncnn12 ? > 100 µM

Request the reported TGI associated with O=C(CC1Sc2ncnn2C1=O)Nc1ccc(Cl)cc1 (stereo not drawn) > 100 µM

* * *

Please go through the items and note down their GI50.
# Test system: SK-MEL-28
# Method description: Growth inhibition of human SK-MEL-28 cells after 48 hrs by SRB protein assay
# Assay type: functional
# Assay conditions: SK-MEL-28, 48 h
Give the value, in units of µM, as a plain number.

Hi! What's the reported GI50 for COc1ccc(NC(=O)CC2Sc3ncnn3C2=O)cc1 (centres undefined) on SK-MEL-28? 26.9

Query the reported GI50 for SK-MEL-28; item: O=c1/c(=C/c2ccc(F)cc2)sc2ncnn12 52.5

Report GI50 for O=C(CC1Sc2ncnn2C1=O)Nc1ccc(Cl)cc1 (centres undefined) tested on SK-MEL-28. 22.9

* * *

# System: DU-145
# Method description: Growth inhibition of human DU145 cells after 48 hrs by SRB protein assay
# Assay type: functional
# Assay conditions: DU-145, 48 h, read-out: Log TGI (converted)
Hi there, I'd appreciate the recorded TGI for every entry that follows.

Request the reported TGI associated with O=c1/c(=C/c2ccc(Cl)cc2)sc2ncnn12 32.4 µM

I am curious: what TGI value has been reported for O=C(CC1Sc2ncnn2C1=O)Nc1ccc(Cl)cc1 (centres undefined) ? > 100 µM

Which TGI reading was recorded for the compound COc1ccc(NC(=O)CC2Sc3ncnn3C2=O)cc1 (centres undefined) ? > 100 µM

May I ask what TGI has been recorded for O=c1/c(=C/c2ccc(F)cc2)sc2ncnn12 ? > 100 µM

* * *

# Test system: SK-MEL-5
# Method description: Growth inhibition of human SK-MEL-5 cells after 48 hrs by SRB protein assay
# Assay type: functional
# Assay conditions: SK-MEL-5, 48 h, read-out: Log TGI (converted)
Measured property: TGI

Tell me the measured TGI of O=c1/c(=C/c2ccc(F)cc2)sc2ncnn12 , please. > 100 µM

Give its TGI value. Item: O=C(CC1Sc2ncnn2C1=O)Nc1ccc(Cl)cc1 (stereo not drawn) > 100 µM

Value lookup for TGI; key = CCOC(=O)c1ccc(NC(=O)CC2Sc3ncnn3C2=O)cc1 (stereo not drawn) > 100 µM
